- target system: HLA-A*0201 (Homo sapiens, UniProt P04439, D140Y/D185E/D98H/E176V/E277Q/G131W/G231S/I119V/I121R/I166T/I218V/L300P/L318F/N151K/N90K/P208A/P217A/Q86G/Q94H/R138H/R169H/T345S)
- assay summary: In vitro class I HLA binding assay (fluorescence polarization competition)
- condition info: allele A*0201; fluorescence polarization competition; read-out: IC50 (nM), in vitro HLA binding affinity
- Experimental: A cell-free class I HLA binding assay that allows for in vitro quantification of peptide-HLA binding affinity in a competition format was used. […] Once the mixture has reached steady equilibrium (at 72 hours), displacement of the high binding control peptide is measured through fluorescence polarization. Binding of experimental peptides is expressed as the percent inhibition of the labeled control peptide (experimental fluorescence / control fluorescence, multiplied by 100). […]
Where a SMILES comes first, the peptide text is derived from it.
Parameter IC50: see the listing below.
observed property: IC50

molecule: CC[C@H](C)[C@H](NC(=O)[C@H](Cc1ccc(O)cc1)NC(=O)[C@H](CO)NC(=O)[C@H](CO)NC(=O)[C@H](CC(N)=O)NC(=O)[C@H](CC(N)=O)NC(=O)[C@@H](NC(=O)[C@H](CC(C)C)NC(=O)[C@@H](N)CS)[C@@H](C)CC)C(=O)O [AMA1_418] (H-CLINNSSYI-OH)
observed property: IC50
readout value: 3820 nM

molecule: CC[C@H](C)[C@H](N)C(=O)N[C@@H](CC(C)C)C(=O)N[C@@H](CC(=O)O)C(=O)N[C@@H](CCSC)C(=O)N[C@@H](CO)C(=O)N[C@@H](CC(N)=O)C(=O)N[C@@H](CCC(=O)O)C(=O)N[C@@H](Cc1ccc(O)cc1)C(=O)N[C@@H](CO)C(=O)N[C@@H](CC(C)C)C(=O)O [RH5_459] (H-ILDMSNEYSL-OH)
observed property: IC50
readout value: 6870 nM

molecule: CC[C@H](C)[C@H](NC(=O)[C@H](Cc1ccccc1)NC(=O)[C@H](CCCCN)NC(=O)[C@@H](NC(=O)[C@@H](NC(=O)[C@H](CC(=O)O)NC(=O)[C@@H](NC(=O)[C@H](Cc1ccc(O)cc1)NC(=O)[C@@H](NC(=O)[C@@H](N)Cc1ccc(O)cc1)[C@@H](C)CC)[C@@H](C)CC)[C@@H](C)O)[C@@H](C)CC)C(=O)O [RH5_404] (H-YIYIDTIKFI-OH)
observed property: IC50
readout value: 53100 nM

---

Recorded measurements of IC50, one per entry
- target system: HLA-A*2402 (Homo sapiens, UniProt P04439, D101N/D140Y/D185E/E176V/E190D/F33S/G103R/G107R/I119L/I121M/I306V/K335N/L105A/L180Q/L300P/N151K/N90K/Q86E/Q94H/R106L/R138H/R89G/T104I/T345S/V100E/W191G/Y123F)
- assay summary: In vitro class I HLA binding assay (fluorescence polarization competition)
- condition info: allele A*2402; fluorescence polarization competition; read-out: IC50 (nM), in vitro HLA binding affinity
Where a SMILES comes first, the peptide text is derived from it.

molecule: CC[C@H](C)[C@H](N)C(=O)N[C@@H](Cc1ccccc1)C(=O)N[C@@H](Cc1ccccc1)C(=O)N[C@@H](CC(N)=O)C(=O)N[C@@H](CC(N)=O)C(=O)N[C@@H](CCC(=O)O)C(=O)N[C@@H](CC(N)=O)C(=O)N[C@@H](CO)C(=O)N[C@H](C(=O)O)[C@@H](C)CC [CYRPA_305] (H-IFFNNENSI-OH)
IC50 (nM): 56.9
//
molecule: CC(C)C[C@H](NC(=O)[C@H](CCCCN)NC(=O)[C@H](Cc1ccc(O)cc1)NC(=O)[C@@H](N)CC(N)=O)C(=O)NCC(=O)N[C@H](C(=O)N[C@@H](CCC(N)=O)C(=O)N[C@@H](Cc1ccc(O)cc1)C(=O)N[C@@H](Cc1ccccc1)C(=O)N[C@@H](Cc1ccccc1)C(=O)O)C(C)C [CYRPA_218] (H-NYKLGVQYFF-OH)
IC50 (nM): 26300

---

- target system: HLA-DRB1*0101 (Homo sapiens, UniProt P01903+P01911, A100R/D57E/F55L/F60I/F76Y/I96L/L162R/M171V/P40L/Q125E/R42F/V115G/Y59C)
- Construct: purchased
- assay summary: biochemical
- Format: binding
- condition info: binding inhibition assay; NB = non-binder (no dose-dependent inhibition); read-out: DRB1*0101 IC50
Where a SMILES comes first, the peptide text is derived from it.
In this section we review reported IC50 values for a set of molecules.
observed property: IC50 (µM)

molecule: CC[C@H](C)[C@H](NC(=O)[C@H](CC(=O)O)NC(=O)[C@H](CCC(=O)O)NC(=O)[C@H](Cc1ccc(O)cc1)NC(C)=O)C(=O)N[C@H](C(=O)N[C@@H](CC(C)C)C(=O)N[C@@H](CCCCN)C(=O)N[C@@H](CO)C(=O)N[C@@H](Cc1c[nH]cn1)C(=O)N[C@@H](CCSC)C(=O)N[C@@H](CC(N)=O)C(=O)N[C@@H](CCCNC(=N)N)C(=O)N[C@@H](CCC(=O)O)C(=O)N[C@@H](CO)C(=O)N[C@@H](CC(=O)O)C(=O)N[C@@H](CC(=O)O)C(N)=O)C(C)C [EBA175_015] (Ac-YEDIVLKSHMNRESDD-NH2)
observed property: IC50
readout value: 19.7
--
molecule: CC(=O)N[C@@H](CCC(=O)O)C(=O)N[C@@H](CCC(=O)O)C(=O)NCC(=O)N[C@@H](Cc1ccc(O)cc1)C(=O)N[C@@H](CCCCN)C(=O)N[C@@H](CC(N)=O)C(=O)N[C@H](C(=O)N[C@@H](CCCCN)C(=O)NCC(=O)N[C@@H](CCCCN)C(=O)N[C@@H](CS)C(=O)N[C@H](C(=O)N1CCC[C@H]1C(=O)N[C@@H](CC(=O)O)C(=O)N[C@@H](CC(N)=O)C(=O)N[C@@H](CCCCN)C(N)=O)C(C)C)C(C)C [RIPR_015] (Ac-EEGYKNVKGKCVPDNK-NH2)
observed property: IC50
readout value: 1.81

---

- target system: HLA-A*0101 (Homo sapiens, UniProt P04439, A114D/A174V/A182V/D101N/D185E/E176A/E190D/L180R/Q94H/R68K/S129P/T187R/V100A/V91M/W191G)
- assay summary: biochemical
- Type: binding
- condition info: allele A*0101; fluorescence polarization competition; read-out: IC50 (nM), in vitro HLA binding affinity
Where a SMILES comes first, the peptide text is derived from it.

compound: CC[C@H](C)[C@H](NC(=O)[C@@H](NC(=O)[C@H](Cc1ccccc1)NC(=O)[C@H](CC(=O)O)NC(=O)[C@H](CC(C)C)NC(=O)[C@@H](N)Cc1c[nH]cn1)C(C)C)C(=O)N[C@H](C(=O)N1CCC[C@H]1C(=O)N[C@@H](Cc1c[nH]cn1)C(=O)N[C@@H](Cc1ccc(O)cc1)C(=O)O)[C@@H](C)CC [RH5_170] (H-HLDFVIIPHY-OH)
IC50: 118000 nM
//
compound: CC[C@H](C)[C@H](NC(=O)CNC(=O)[C@H](CC(N)=O)NC(=O)[C@@H](NC(=O)[C@@H](N)CC(N)=O)[C@@H](C)O)C(=O)N[C@@H](CCCNC(=N)N)C(=O)N[C@@H](Cc1ccc(O)cc1)C(=O)N[C@@H](Cc1c[nH]cn1)C(=O)N[C@@H](Cc1ccc(O)cc1)C(=O)O [RH5_352] (H-NTNGIRYHY-OH)
IC50: 4380 nM

---

- target system: HLA-DRB1*0701 (Homo sapiens, UniProt P01903+P01911, A100R/A102G/A103Q/D57E/D86V/E43K/F76Y/K127E/L162R/M171V/P40G/Q125H/Q99D/R33Q/R42Y/R54Q/S133A/S66F/T210M/V115G/Y107V/Y59L/Y89S)
- assay summary: biochemical
- Assay type: binding
- condition info: binding inhibition assay; NB = non-binder (no dose-dependent inhibition); read-out: DRB1*0701 IC50
Where a SMILES comes first, the peptide text is derived from it.

compound: CC(=O)N[C@@H](Cc1ccccc1)C(=O)N[C@@H](CCC(N)=O)C(=O)N[C@@H](CC(N)=O)C(=O)N[C@@H](Cc1ccc(O)cc1)C(=O)N[C@H](C(=O)N[C@@H](Cc1ccc(O)cc1)C(=O)N[C@@H](CC(C)C)C(=O)N[C@@H](CO)C(=O)N[C@@H](CCCCN)C(=O)N[C@@H](CC(N)=O)C(=O)N[C@H](C(=O)N[C@H](C(=O)N[C@@H](CC(=O)O)C(=O)N[C@@H](CC(N)=O)C(=O)N[C@@H](Cc1c[nH]c2ccccc12)C(=O)N[C@@H](CCC(=O)O)C(N)=O)C(C)C)C(C)C)[C@@H](C)O [AMA1_004] (Ac-FQNYTYLSKNVVDNWE-NH2)
IC50: 9.48 µM
